Measured TGI by item
- System: SN12C renal
- ASSAY PROTOCOL: NCI tumour cell line growth inhibition, 48 h
QUANTITY KIND: TGI

{"MOLECULE": "CC(C)CCN[C@@H]1CCc2cc(O)c(N3CC(=O)NS3(=O)=O)c(F)c2C1", "QUANTITY KIND": "TGI", "MEASURED": "> 100 µM"}
{"MOLECULE": "Cn1c(=O)c(Oc2ccc(F)cc2F)cc2cnc(NCCS(C)(=O)=O)nc21", "QUANTITY KIND": "TGI", "MEASURED": "> 25 µM"}
{"MOLECULE": "CCOC(=O)C1=C(Nc2ccc(Cl)c(Cl)c2)OC/C1=N\\NS(=O)(=O)c1ccc(C)cc1", "QUANTITY KIND": "TGI", "MEASURED": "> 100 µM"}
{"MOLECULE": "Cc1cccc2c(N)c3ccccc3nc12", "QUANTITY KIND": "TGI", "MEASURED": "12.7 µM"}
{"MOLECULE": "O=C(N/N=C\\C(F)(F)F)c1ccncc1", "QUANTITY KIND": "TGI", "MEASURED": "> 100 µM"}
{"MOLECULE": "O=c1[nH]n(Cc2ccccc2Cl)c2ccccc12", "QUANTITY KIND": "TGI", "MEASURED": "> 100 µM"}
{"MOLECULE": "COC(=O)C1=C(c2ccc3c(c2)OCO3)OC(c2cc(OC)c(OC)c(OC)c2)C1 (configuration not stated)", "QUANTITY KIND": "TGI", "MEASURED": "> 100 µM"}
{"MOLECULE": "COc1cc(C2C(Cl)C(=O)N2NC(=O)c2ccc(NC(C)=O)cc2OC)ccc1O (configuration not stated)", "QUANTITY KIND": "TGI", "MEASURED": "35 µM"}
{"MOLECULE": "CC#CC(O)(C(=O)OC1CC2CCC(C1)N2C)C1CCCC1 (configuration not stated)", "QUANTITY KIND": "TGI", "MEASURED": "> 100 µM"}
{"MOLECULE": "O=C1c2nc3n(c2C(=O)c2c1nc1n2CCC1)CCC3", "QUANTITY KIND": "TGI", "MEASURED": "14.5 µM"}
{"MOLECULE": "Nc1ccc([C@H]2C(=O)N[C@H]3CCC[C@H]32)cc1", "QUANTITY KIND": "TGI", "MEASURED": "> 100 µM"}
{"MOLECULE": "CN(C)CC1CN=C(NC(=O)Nc2ccccc2)O1 (configuration not stated)", "QUANTITY KIND": "TGI", "MEASURED": "> 100 µM"}
{"MOLECULE": "O=C1C=CC(CC(=O)c2ccc3ccccc3c2)O1 (configuration not stated)", "QUANTITY KIND": "TGI", "MEASURED": "36 µM"}
{"MOLECULE": "O=C(Nc1ccc(I)cc1F)c1cc(Cl)ccc1O", "QUANTITY KIND": "TGI", "MEASURED": "4.47 µM"}
{"MOLECULE": "CC(C)c1cc(OCC(O)CO)cc(C(C)C)c1 (configuration not stated)", "QUANTITY KIND": "TGI", "MEASURED": "> 100 µM"}
{"MOLECULE": "O=[N+]([O-])c1cccc(C2=NOC3C4CCC(C4)C23)c1 (configuration not stated)", "QUANTITY KIND": "TGI", "MEASURED": "> 100 µM"}
{"MOLECULE": "CCOC(=O)/C(C#N)=C/c1ccc2c(c1)CC1(C2)Cc2cc(CC)c(C(C)O)cc2C1 (configuration not stated)", "QUANTITY KIND": "TGI", "MEASURED": "32.4 µM"}
{"MOLECULE": "c1ccc2c(c1)C1=NCCN1c1ccccc1-2", "QUANTITY KIND": "TGI", "MEASURED": "9.92 µM"}
{"MOLECULE": "Cc1cc2c(cc1N)C(C)C1(CCC(=O)N2Cc2ccccc2)OCCO1 (configuration not stated)", "QUANTITY KIND": "TGI", "MEASURED": "> 100 µM"}
{"MOLECULE": "CCCC[C@H]1CCN2C[C@@H](O)[C@@H](O)[C@H]2[C@@H]1O", "QUANTITY KIND": "TGI", "MEASURED": "> 100 µM"}
{"MOLECULE": "CO[C@H]1CC(c2ccc[nH]2)=N[C@]12O[C@@H](C)C[C@@H]1CCCCCCCc3ccc([nH]3)[C@H]12", "QUANTITY KIND": "TGI", "MEASURED": "18.9 µM"}
{"MOLECULE": "CC(C)C(NC(=O)C(Cc1ccccc1)NC(=O)[C@H]1CCC[C@H]1NC(=O)C(N)Cc1ccc(O)cc1)C(N)=O (some centres not stated)", "QUANTITY KIND": "TGI", "MEASURED": "> 100 µM"}

* * *

Measured GI50 by item
- Tested on: KM12 colon

{"SAMPLE SMILES": "COc1cc(Cl)cc(-c2nn(-c3cccc(NC(=O)Nc4ccc(Cl)c(C(F)(F)F)c4)c3)cc2-c2ccncc2)c1", "GI50": "0.555 µM"}
{"SAMPLE SMILES": "COc1ccc(Nc2cc(C)nc(N3CCN(c4ccnc5cc(Cl)ccc45)CC3)n2)cc1", "GI50": "1.64 µM"}
{"SAMPLE SMILES": "Cc1cc(OCc2nnc3n2N=C(c2ccc(Cl)cc2Cl)CS3)ccc1Cl", "GI50": "53.3 µM"}
{"SAMPLE SMILES": "O=C1c2nc3n(c2C(=O)c2c1nc1n2CCC1)CCC3", "GI50": "5.63 µM"}
{"SAMPLE SMILES": "COc1cc2c3c(n(CCCN=[N+]=[N-])c(=O)c2cc1OC)-c1ccc(N(C)C)cc1C3=O", "GI50": "> 100 µM"}
{"SAMPLE SMILES": "CN(/N=N/c1nc(OCc2ccccc2)c2[nH]cnc2n1)C(=O)Oc1ccc([N+](=O)[O-])cc1", "GI50": "8.49 µM"}
{"SAMPLE SMILES": "CCN(CC)CCSCCCNc1c2ccc(Cl)cc2nc2ccc(OC)cc12", "GI50": "0.802 µM"}
{"SAMPLE SMILES": "O=C1NCCS(=O)(=O)/C1=C\\C=C\\c1cccc(C(F)(F)F)c1", "GI50": "2.36 µM"}
{"SAMPLE SMILES": "Cc1cccc2c(N)c3ccccc3nc12", "GI50": "1.78 µM"}
{"SAMPLE SMILES": "O=C(Nc1ccc(I)cc1F)c1cc(Cl)ccc1O", "GI50": "2.31 µM"}

* * *

- Test system: SNB-78 CNS
- ASSAY PROTOCOL: NCI tumour cell line growth inhibition, 48 h

{"MOLECULE": "CCCCCC(O)C1C(=O)OC(C)C(O)/C=C/C=C/C=C/C=C/C=C(\\C)C(O)C(O)C(O)CC(O)CC(O)CC(O)CC(O)CC1O (stereo unspecified)", "SUBJECT OF TEST": "SNB-78 CNS", "TGI": "4.69 µM"}
{"MOLECULE": "O=C(CC1C(=O)c2ccccc2C1=C1C(=O)c2ccccc2C1=O)c1ccccc1 (stereo unspecified)", "SUBJECT OF TEST": "SNB-78 CNS", "TGI": "> 100 µM"}
{"MOLECULE": "O=C1C2Nc3ccccc3SC2C(=O)N1c1ccccc1C(F)(F)F (stereo unspecified)", "SUBJECT OF TEST": "SNB-78 CNS", "TGI": "53.6 µM"}
{"MOLECULE": "CC(C)c1cc(OCC(O)CO)cc(C(C)C)c1 (stereo unspecified)", "SUBJECT OF TEST": "SNB-78 CNS", "TGI": "> 100 µM"}
{"MOLECULE": "O=C(NO)c1ccc(O)c(O)c1", "SUBJECT OF TEST": "SNB-78 CNS", "TGI": "> 100 µM"}
{"MOLECULE": "CN1CC(=O)N(C)c2nc[nH]c2C1=O", "SUBJECT OF TEST": "SNB-78 CNS", "TGI": "> 100 µM"}
{"MOLECULE": "Cc1cc2c(C)n(Cc3ccc(Cl)cc3Cl)nc2c(C(=O)O)c1C", "SUBJECT OF TEST": "SNB-78 CNS", "TGI": "> 100 µM"}
{"MOLECULE": "Nc1n[nH]c(CCc2nc(N)n[nH]2)n1", "SUBJECT OF TEST": "SNB-78 CNS", "TGI": "> 100 µM"}
{"MOLECULE": "CCOC(=O)C1=C(Nc2ccc(Cl)c(Cl)c2)OC/C1=N\\NS(=O)(=O)c1ccc(C)cc1", "SUBJECT OF TEST": "SNB-78 CNS", "TGI": "> 100 µM"}
{"MOLECULE": "Cc1cccc2nc3cccc(C(=O)NCCN(C)C)c3nc12", "SUBJECT OF TEST": "SNB-78 CNS", "TGI": "12 µM"}
{"MOLECULE": "NCc1cc(O)c(O)c(O)c1", "SUBJECT OF TEST": "SNB-78 CNS", "TGI": "> 100 µM"}
